Target: BRG-1 (Homo sapiens, UniProt P51532)
Sequence (P51532 whole entry): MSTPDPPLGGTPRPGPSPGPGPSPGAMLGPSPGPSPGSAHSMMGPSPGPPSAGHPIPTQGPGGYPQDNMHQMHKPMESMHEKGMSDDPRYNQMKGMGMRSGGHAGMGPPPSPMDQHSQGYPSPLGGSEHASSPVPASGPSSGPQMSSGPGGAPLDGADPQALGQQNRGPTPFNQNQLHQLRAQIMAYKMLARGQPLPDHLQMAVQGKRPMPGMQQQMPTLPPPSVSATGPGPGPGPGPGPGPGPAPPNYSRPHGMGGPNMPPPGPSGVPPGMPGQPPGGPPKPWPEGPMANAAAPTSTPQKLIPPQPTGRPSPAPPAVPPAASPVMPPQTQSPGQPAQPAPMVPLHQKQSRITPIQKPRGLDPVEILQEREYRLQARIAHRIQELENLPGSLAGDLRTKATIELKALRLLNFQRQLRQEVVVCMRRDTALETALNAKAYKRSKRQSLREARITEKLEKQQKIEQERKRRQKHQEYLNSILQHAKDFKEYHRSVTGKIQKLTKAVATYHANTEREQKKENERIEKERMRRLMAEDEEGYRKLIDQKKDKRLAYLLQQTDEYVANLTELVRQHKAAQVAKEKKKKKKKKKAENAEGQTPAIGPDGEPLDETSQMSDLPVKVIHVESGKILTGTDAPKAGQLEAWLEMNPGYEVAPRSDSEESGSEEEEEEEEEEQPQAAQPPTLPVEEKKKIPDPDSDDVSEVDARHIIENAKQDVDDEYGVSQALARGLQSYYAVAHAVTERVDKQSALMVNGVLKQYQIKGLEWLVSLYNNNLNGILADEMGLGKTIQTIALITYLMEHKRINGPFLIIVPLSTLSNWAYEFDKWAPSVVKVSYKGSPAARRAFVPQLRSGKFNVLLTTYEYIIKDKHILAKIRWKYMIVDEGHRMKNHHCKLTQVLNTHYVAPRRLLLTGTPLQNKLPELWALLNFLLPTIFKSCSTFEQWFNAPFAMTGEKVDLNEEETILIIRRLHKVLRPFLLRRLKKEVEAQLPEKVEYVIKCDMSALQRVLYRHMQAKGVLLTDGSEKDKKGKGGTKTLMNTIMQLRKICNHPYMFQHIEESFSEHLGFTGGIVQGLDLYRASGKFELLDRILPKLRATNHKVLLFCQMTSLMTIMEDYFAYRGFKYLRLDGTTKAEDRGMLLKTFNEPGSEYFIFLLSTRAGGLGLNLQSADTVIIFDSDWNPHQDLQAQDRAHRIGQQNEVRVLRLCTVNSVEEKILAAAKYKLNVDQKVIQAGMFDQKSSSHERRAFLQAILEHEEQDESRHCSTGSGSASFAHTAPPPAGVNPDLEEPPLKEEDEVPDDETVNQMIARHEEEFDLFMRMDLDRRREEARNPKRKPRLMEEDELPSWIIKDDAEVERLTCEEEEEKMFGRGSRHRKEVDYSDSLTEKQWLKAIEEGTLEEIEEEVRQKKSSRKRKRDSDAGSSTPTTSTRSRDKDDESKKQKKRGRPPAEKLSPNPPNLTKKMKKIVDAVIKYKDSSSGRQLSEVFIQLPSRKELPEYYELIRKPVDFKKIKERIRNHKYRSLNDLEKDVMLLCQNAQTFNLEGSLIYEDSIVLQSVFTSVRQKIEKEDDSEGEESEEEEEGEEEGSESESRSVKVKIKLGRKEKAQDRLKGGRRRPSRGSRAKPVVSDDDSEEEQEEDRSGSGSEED
Assay: ATPase catalytic activity assay of BRG-1 (ADP-Glo)
Assay type: biochemical
Conditions: ATPase catalytic activity, ADP-Glo; read-out: BRG1 IC50 (μM)*
I'd be grateful if you could share measured IC50 for these entries.

IN: Using the record for `C[C@@H]1CN(c2cccc(-c3csc(NC(=O)CNC(=O)c4cccc(C5(F)CC6(COC6)C5)c4)n3)n2)C[C@H](C)O1` , report its IC50.
OUT: > 5 µM

IN: Using the record for `CC(C)(CN)c1cccc(C(=O)NCC(=O)Nc2nc(-c3cccc(-c4cc(Cl)cc(Cl)c4)c3)cs2)c1` , report its IC50.
OUT: > 5 µM

IN: Using the record for `C[C@@H]1CN(c2cccc(-c3csc(NC(=O)CNC(=O)c4ccc5c(c4)[C@@](C)(F)COC5)n3)n2)C[C@H](C)O1` , report its IC50.
OUT: 0.1 to 1 µM

IN: Using the record for `C[C@@H]1CN(c2cc(-c3csc(NC(=O)CNC(=O)c4ccc5c(c4)[C@](C)(C#N)COC5)n3)ccn2)C[C@H](C)O1` , report its IC50.
OUT: < 0.1 µM

IN: Using the record for CC(NC(=O)c1ccc2c(c1)[C@](C)(F)COC2)C(=O)Nc1nc(-c2cccc(N3CCC3)c2)cs1 (stereo in doubt) , report its IC50.
OUT: 0.1 to 1 µM

IN: Using the record for `C[C@@]1(C#N)COCc2ccc(C(=O)NCC(=O)Nc3nc(-c4cc(F)cc(N5CCC5)c4)cs3)cc21` , report its IC50.
OUT: < 0.1 µM

IN: Using the record for `Cc1cc(-c2cccc(-c3csc(NC(=O)CNC(=O)c4ccc5c(c4)[C@@](C)(CO)CC5)n3)c2)nc(C)n1` , report its IC50.
OUT: < 0.1 µM

IN: Using the record for `C[C@@]1(C#N)COCc2ccc(C(=O)NCC(=O)Nc3nc(-c4cccc(N5CCC56COC6)c4)cs3)cc21` , report its IC50.
OUT: 0.1 to 1 µM

IN: Using the record for `C[C@@H]1CN(c2cccc(-c3csc(NC(=O)CNC(=O)c4cccc([C@]5(F)C[C@@H](F)C5)c4)n3)n2)C[C@H](C)O1` , report its IC50.
OUT: 0.1 to 1 µM

IN: Using the record for C[C@@H]1CN(c2cccc(-c3csc(NC(=O)CNC(=O)c4ccc5c(c4)C(C#N)(CO)COC5)n3)c2)C[C@H](C)O1 (stereo partly shown) , report its IC50.
OUT: 0.1 to 1 µM

IN: Using the record for `C[C@@H]1CN(c2cccc(-c3csc(NC(=O)CNC(=O)c4cccc(C5(CO)COC5)c4)n3)c2)C[C@H](C)O1` , report its IC50.
OUT: > 5 µM

IN: Using the record for `CC(C)(CN)c1cccc(C(=O)NCC(=O)Nc2nc(-c3cccc(-c4cccc(Cl)c4)c3)cs2)c1` , report its IC50.
OUT: 1 to 5 µM

IN: Using the record for `CC(C)S(=O)(=O)c1cccc(C(=O)NCC(=O)Nc2nc(-c3cccc(-c4cc(Cl)cc(Cl)c4)c3)cs2)c1` , report its IC50.
OUT: 1 to 5 µM

* * *

Target: BRM (Homo sapiens)
Sequence (P51531 whole entry): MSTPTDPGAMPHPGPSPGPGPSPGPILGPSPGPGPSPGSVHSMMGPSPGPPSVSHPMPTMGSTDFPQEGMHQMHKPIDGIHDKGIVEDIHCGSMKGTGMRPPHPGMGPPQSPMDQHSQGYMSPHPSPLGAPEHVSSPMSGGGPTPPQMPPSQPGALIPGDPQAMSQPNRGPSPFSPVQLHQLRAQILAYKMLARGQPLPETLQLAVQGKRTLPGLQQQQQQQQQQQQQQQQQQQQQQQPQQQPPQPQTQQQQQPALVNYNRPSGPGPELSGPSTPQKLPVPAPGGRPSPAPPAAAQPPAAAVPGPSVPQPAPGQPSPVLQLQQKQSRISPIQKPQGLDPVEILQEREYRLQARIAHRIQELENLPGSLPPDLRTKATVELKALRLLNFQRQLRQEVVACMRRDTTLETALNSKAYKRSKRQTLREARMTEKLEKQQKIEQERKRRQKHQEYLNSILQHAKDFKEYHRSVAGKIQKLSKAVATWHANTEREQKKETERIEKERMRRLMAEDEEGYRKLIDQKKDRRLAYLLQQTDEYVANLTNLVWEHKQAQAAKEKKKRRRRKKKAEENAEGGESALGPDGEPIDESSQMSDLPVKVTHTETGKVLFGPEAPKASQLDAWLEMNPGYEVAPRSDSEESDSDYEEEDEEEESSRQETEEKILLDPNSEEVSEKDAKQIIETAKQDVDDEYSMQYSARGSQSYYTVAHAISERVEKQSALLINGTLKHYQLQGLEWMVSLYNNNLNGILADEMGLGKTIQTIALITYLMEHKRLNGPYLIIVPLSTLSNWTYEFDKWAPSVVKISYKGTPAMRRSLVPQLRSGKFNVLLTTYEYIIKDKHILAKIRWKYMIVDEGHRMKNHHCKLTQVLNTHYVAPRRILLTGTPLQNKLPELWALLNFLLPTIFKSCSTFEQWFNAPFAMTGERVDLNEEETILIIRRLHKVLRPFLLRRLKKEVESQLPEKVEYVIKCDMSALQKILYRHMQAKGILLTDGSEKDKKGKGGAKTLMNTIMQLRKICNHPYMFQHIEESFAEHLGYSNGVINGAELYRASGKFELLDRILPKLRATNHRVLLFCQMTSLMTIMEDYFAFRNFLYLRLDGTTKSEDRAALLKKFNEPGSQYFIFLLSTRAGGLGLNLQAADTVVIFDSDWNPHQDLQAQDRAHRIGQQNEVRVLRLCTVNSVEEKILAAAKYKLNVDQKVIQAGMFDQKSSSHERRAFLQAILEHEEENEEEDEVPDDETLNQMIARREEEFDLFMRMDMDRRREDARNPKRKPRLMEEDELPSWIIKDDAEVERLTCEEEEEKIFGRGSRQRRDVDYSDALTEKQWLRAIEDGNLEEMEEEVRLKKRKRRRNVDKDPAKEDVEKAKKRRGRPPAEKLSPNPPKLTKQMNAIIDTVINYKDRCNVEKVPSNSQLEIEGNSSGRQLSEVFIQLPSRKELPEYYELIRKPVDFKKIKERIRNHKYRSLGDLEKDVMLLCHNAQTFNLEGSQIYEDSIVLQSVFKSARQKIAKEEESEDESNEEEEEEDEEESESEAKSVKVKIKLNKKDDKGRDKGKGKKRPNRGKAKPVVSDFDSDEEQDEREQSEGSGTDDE
Test: ATPase catalytic activity assay of BRM (ADP-Glo)
Format: biochemical
Conditions: read-out: BRM IC50 (μM)*
I'd be grateful if you could share measured IC50 for these entries.

IN: Using the record for COc1cc(-c2cccc(-c3csc(NC(=O)CNC(=O)c4cccc(S(=O)(=O)C(C)C)c4)n3)c2)nc(C)n1 [Compound 123] , report its IC50.
OUT: < 0.1 µM

IN: Using the record for CC(C)(N)c1cccc(C(=O)NCC(=O)Nc2nc(-c3cccc(-c4ccncc4)c3)cs2)c1 [Compound 86] , report its IC50.
OUT: > 5 µM

IN: Using the record for Cc1cc(-c2cccc(-c3csc(NC(=O)CNC(=O)c4ccc5c(c4)[C@](C)(CO)CC5)n3)n2)ncn1 [Compound 203] , report its IC50.
OUT: < 0.1 µM

IN: Using the record for COc1cccc(-c2csc(NC(=O)CNC(=O)c3ccc4c(c3)C(C)(F)CCCO4)n2)c1 (stereo in doubt) [Compound 324] , report its IC50.
OUT: 0.1 to 1 µM

IN: Using the record for CC1(C#N)CCOc2ccc(C(=O)NCC(=O)Nc3nc(-c4cccc([C@@H]5CC5(F)F)n4)cs3)cc21 (stereo in doubt) [Compound 380] , report its IC50.
OUT: 0.1 to 1 µM

IN: Using the record for CC(C)S(=O)(=O)c1cccc(C(=O)NCC(=O)Nc2nc(-c3cccc(CO[C@H]4CC[C@H](O)CC4)c3)cs2)c1 [Compound 17] , report its IC50.
OUT: 0.1 to 1 µM

IN: Using the record for CC(C)(CN)c1cccc(C(=O)NCC(=O)Nc2nc(-c3cccc(-c4cccc(Cl)c4)c3)cs2)c1 [Compound 54] , report its IC50.
OUT: 1 to 5 µM

IN: Using the record for C[C@@H]1CN(c2cccc(-c3csc(NC(=O)CNC(=O)c4ccc5c(c4)C(C)(C)COC5)n3)n2)C[C@H](C)O1 [Compound 282] , report its IC50.
OUT: < 0.1 µM

IN: Using the record for C[C@@H]1CN(c2cccc(-c3csc(NC(=O)CNC(=O)c4ccc5c(c4)[C@@](C)(CO)CCO5)n3)c2)C[C@H](C)O1 [Compound 166] , report its IC50.
OUT: 0.1 to 1 µM

IN: Using the record for CC(C)S(=O)(=O)c1cccc(C(=O)NCC(=O)Nc2nc(-c3cccc(N4CCOCC4)c3)cs2)c1 [Compound 126] , report its IC50.
OUT: 0.1 to 1 µM

IN: Using the record for CC(C)S(=O)(=O)c1cccc(C(=O)NCC(=O)Nc2nc(-c3cccc(-c4cccc(CN)c4)c3)cs2)c1 [Compound 31] , report its IC50.
OUT: 0.1 to 1 µM

IN: Using the record for CC1CC(c2cccc(-c3csc(NC(=O)CNC(=O)c4ccc5c(c4)[C@](C)(C#N)COC5)n3)c2)O1 (some centres unmarked) [Compound 340] , report its IC50.
OUT: < 0.1 µM

IN: Using the record for COCC(NC(=O)c1ccc2c(c1)[C@](C)(F)COC2)C(=O)Nc1nc(-c2cccc(C(F)F)c2)cs1 (stereo in doubt) [Compound 327] , report its IC50.
OUT: < 0.1 µM

IN: Using the record for C[C@@H]1CN(c2cccc(-c3csc(NC(=O)CNC(=O)c4cccc([C@]5(C)COC[C@H]5O)c4)n3)n2)C[C@H](C)O1 [Compound 408] , report its IC50.
OUT: 0.1 to 1 µM

* * *

I'd be grateful if you could share measured IC50 for these entries.
Target: BRG-1 (Homo sapiens)
Test: ATPase catalytic activity assay of BRG-1 (ADP-Glo)
Type: biochemical
Conditions: ATPase catalytic activity, ADP-Glo; read-out: BRG1 IC50 (μM)*

IN: Using the record for `C[C@@H]1CN(c2cccc(-c3csc(NC(=O)CNC(=O)c4ccc5c(c4)[C@]4(COC5)CC4(F)F)n3)n2)C[C@H](C)O1` , report its IC50.
OUT: > 5 µM

IN: Using the record for `O=C(CNC(=O)c1cccc(C2(C(F)F)COC2)c1)Nc1nc(-c2cccc(C(F)F)c2)cs1` , report its IC50.
OUT: 0.1 to 1 µM

IN: Using the record for `Cc1cc(-c2cccc(-c3csc(NC(=O)CNC(=O)c4ccc(C)c(S(=O)(=O)C(C)C)c4)n3)n2)ncn1` , report its IC50.
OUT: 0.1 to 1 µM

IN: Using the record for `CC(C)(CO)c1cccc(C(=O)NCC(=O)Nc2nc(-c3cccc(N4CCC(O)CC4)c3)cs2)c1` , report its IC50.
OUT: 0.1 to 1 µM

* * *

I'd be grateful if you could share measured BRM Max % Inhibition for these entries.
Target: UniProt P51531
Test: ATPase catalytic activity assay of BRM (ADP-Glo)
Type: biochemical

IN: Using the record for C[C@H](NC(=O)c1cccc(C(C)(C)CN)c1)C(=O)Nc1nc(-c2cccc(-c3ccncc3)c2)cs1 [Compound 65] , report its BRM Max % Inhibition.
OUT: >90%

IN: Using the record for C[C@@H]1CN(c2cccc(-c3csc(NC(=O)CNC(=O)c4ccc5c(c4)C4(CCCC4=O)CC5)n3)c2)C[C@H](C)O1 (some centres unmarked) [Compound 195] , report its BRM Max % Inhibition.
OUT: >95%

IN: Using the record for C[C@@H]1CN(c2cccc(-c3csc(NC(=O)CNC(=O)c4ccc5c(c4)C4(CCO4)COC5)n3)n2)C[C@H](C)O1 (some centres unmarked) [Compound 376] , report its BRM Max % Inhibition.
OUT: >95%

IN: Using the record for C[C@@H]1CN(c2cccc(-c3csc(NC(=O)CNC(=O)c4ccc5c(c4)[C@@]4(CCC[C@H]4O)CC5)n3)c2)C[C@H](C)O1 [Compound 188] , report its BRM Max % Inhibition.
OUT: >90%

IN: Using the record for C[C@@H]1CN(c2cccc(-c3csc(NC(=O)CNC(=O)c4cccc([C@@H]5COC[C@H]5O)c4)n3)c2)C[C@H](C)O1 [Compound 157] , report its BRM Max % Inhibition.
OUT: >70%

IN: Using the record for CC1(C(N)=O)CCc2ccc(C(=O)NCC(=O)Nc3nc(-c4cccc(-c5ccncc5)c4)cs3)cc21 (centres unmarked) [Compound 96] , report its BRM Max % Inhibition.
OUT: >95%

IN: Using the record for C[C@@H]1CN(c2cccc(-c3csc(NC(=O)CNC(=O)c4ccc5c(c4)C(O)(C(F)F)COC5)n3)c2)C[C@H](C)O1 (some centres unmarked) [Compound 326] , report its BRM Max % Inhibition.
OUT: >95%

IN: Using the record for Cn1cnc2ccc(-c3csc(NC(=O)CNC(=O)c4ccc5c(c4)[C@@](C)(CO)CC5)n3)cc21 [Compound 257] , report its BRM Max % Inhibition.
OUT: >70%

IN: Using the record for COC(=O)N1CCC(c2csc(NC(=O)CNC(=O)c3ccc4c(c3)[C@](C)(F)COC4)n2)CC1 [Compound 281] , report its BRM Max % Inhibition.
OUT: >90%

IN: Using the record for C[C@@H]1CN(c2cccc(-c3csc(NC(=O)CNC(=O)c4ccc5c(c4)C(C)(C)COC5)n3)n2)C[C@H](C)O1 [Compound 282] , report its BRM Max % Inhibition.
OUT: >95%

IN: Using the record for C[C@@H]1CN(c2cccc(-c3csc(NC(=O)CNC(=O)c4ccc5c(c4)[C@@H](C)COC5)n3)n2)C[C@H](C)O1 [Compound 320] , report its BRM Max % Inhibition.
OUT: >95%

IN: Using the record for C[C@@H]1CN(c2cccc(-c3csc(NC(=O)CNC(=O)c4ccc5c(c4)[C@@](C)(CO)CCO5)n3)c2)C[C@H](C)O1 [Compound 166] , report its BRM Max % Inhibition.
OUT: >95%

IN: Using the record for C[C@@H]1CN(c2cccc(-c3csc(NC(=O)CNC(=O)c4ccc5c(c4)C(C)(C#N)CNC5)n3)c2)C[C@H](C)O1 (stereo in doubt) [Compound 287] , report its BRM Max % Inhibition.
OUT: >95%

IN: Using the record for C[C@@H]1CN(c2cccc(-c3csc(NC(=O)CNC(=O)c4ccc5c(c4)[C@@](C)(C#N)CN5C)n3)c2)C[C@H](C)O1 [Compound 368] , report its BRM Max % Inhibition.
OUT: >85%

IN: Using the record for O=C(CNC(=O)c1ccc2c(c1)[C@@](F)(C(F)F)COC2)Nc1nc(-c2cc(F)cc(N3CCC3)c2)cs1 [Compound 277] , report its BRM Max % Inhibition.
OUT: >95%

IN: Using the record for Cc1nccc(-c2cccc(-c3csc(NC(=O)CNC(=O)c4ccc5c(c4)[C@](C)(CO)CC5)n3)n2)n1 [Compound 215] , report its BRM Max % Inhibition.
OUT: >95%

IN: Using the record for Cc1cc(-c2cccc(-c3csc(NC(=O)CNC(=O)c4cccc(C(C)(C)CO)c4)n3)c2)nc(C)n1 [Compound 93] , report its BRM Max % Inhibition.
OUT: >95%

IN: Using the record for COc1cccc(-c2csc(NC(=O)[C@H](C)NC(=O)c3ccc4c(c3)[C@](C)(F)COC4)n2)c1 [Compound 309] , report its BRM Max % Inhibition.
OUT: >95%

IN: Using the record for C[C@@H]1CN(c2cccc(-c3csc(NC(=O)CNC(=O)c4ccc5c(c4)[C@@](C)(CO)CC5)n3)n2)C[C@H](C)O1 [Compound 224] , report its BRM Max % Inhibition.
OUT: >95%

IN: Using the record for C[C@@H]1CN(c2cccc(-c3csc(NC(=O)CNC(=O)c4ccc5c(c4)[C@](C)(F)COC5)n3)n2)C[C@H](C)O1 [Compound 409] , report its BRM Max % Inhibition.
OUT: >95%

IN: Using the record for CC(C)(/C(N)=N\O)c1cccc(C(=O)NCC(=O)Nc2nc(-c3cccc(-c4ccncc4)c3)cs2)c1 [Compound 83] , report its BRM Max % Inhibition.
OUT: >90%

IN: Using the record for Cc1cc(-c2cccc(-c3csc(NC(=O)CNC(=O)c4cccc(C(C)(C)CN)c4)n3)c2)cc(C)n1 [Compound 66] , report its BRM Max % Inhibition.
OUT: >95%

IN: Using the record for CC(C)(CN)c1cccc(C(=O)NCC(=O)Nc2nc(-c3cccc(-c4cc(Cl)cc(Cl)c4)c3)cs2)c1 [Compound 51] , report its BRM Max % Inhibition.
OUT: >80%

IN: Using the record for CC(C)N1CCOc2ccc(C(=O)NCC(=O)Nc3nc(-c4cccc(N5C[C@@H](C)O[C@@H](C)C5)n4)cs3)cc21 [Compound 395] , report its BRM Max % Inhibition.
OUT: >80%

IN: Using the record for C[C@@H]1CN(c2cccc(-c3csc(NC(=O)CNC(=O)c4cccc(C(C)(C)C)c4)n3)c2)C[C@H](C)O1 [Compound 217] , report its BRM Max % Inhibition.
OUT: >95%

IN: Using the record for COC(=O)N1CCC[C@@H](c2csc(NC(=O)CNC(=O)c3ccc4c(c3)[C@@](C)(C#N)COC4)n2)C1 (stereo in doubt) [Compound 354] , report its BRM Max % Inhibition.
OUT: >95%
